Values compiled from PubChem BioAssay.

# testSummary: S. cerevisiae RM11-1a growth modifiers, primary screen, strain RM11-1a, OD600, basal, 24 h (AID 1177);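 note: cultures grown under basal conditions with no added stressor; test concentration not given here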
# settings: OD600, 24 h, higher = more signal, called active from +8 up or from −8 down
Label Satisfied when z-score is at or above 2; anything below gets Not satisfied.

Recorded results for 6 molecules are shown here.
[[record]]
molecule = "COc1cc2c(cc1O)C(C)N(Cc1sc3ccccc3c1Cl)CC2 (configuration not stated)"
grouplabel = "Not satisfied"

[[record]]
molecule = "COc1ccc(C(=O)Nc2cccc(CN3C(=O)[C@]4(O[C@H](CC(=O)N(CCO)Cc5ccccc5)[C@@H]([Si](C)(C)c5ccc(OC)cc5)[C@@H]4C)c4ccccc43)c2)cc1"
grouplabel = "Satisfied"

[[record]]
molecule = "C=CCN1C(=O)[C@@]2(O[C@@H](CCO)[C@H]([Si](C)(C)c3ccc(OC)cc3)[C@H]2C)c2cc(N3CCCCC3=O)ccc21"
grouplabel = "Satisfied"

[[record]]
molecule = "COC(=O)[C@@]1(Cc2ccc(F)cc2)[C@H]2c3cc(C(=O)N(C)C)n(Cc4cccc5ccccc45)c3C[C@H]2CN1C(=O)c1ccccc1"
grouplabel = "Not satisfied"

[[record]]
molecule = "CC(C)N1CC=CC23O[C@@H]4/C=C\\CCCOC(=O)C4[C@H]2C(=O)N(C(C)CO)[C@@H]3C1=O (some centres not stated)"
grouplabel = "Not satisfied"

[[record]]
molecule = "CC1CC/C=C\\[C@H]2OC34C=CCN(CCN5CCOCC5)C(=O)[C@H]3N(C(CO)C(C)C)C(=O)[C@@H]4C2C(=O)O1 (some centres not stated)"
grouplabel = "Not satisfied"


# evaluate next
Task: z-score >= 2 for `O=C(NCC(F)(F)F)[C@@H]1c2ccccc2C(=O)N(Cc2cc(C(F)(F)F)cc(C(F)(F)F)c2)[C@H]1c1ccc(CO)cc1` ?
Result: Not satisfied

###

# testSummary: HepG2 liver cancer cell viability effects, profiling panel, resazurin fluorescence, 24 h, PK04 Diversity Set (AID 1172); note: test concentration not given here
# settings: higher = more signal
Threshold check on z-score: at or above 0.3 gives true (1), strictly below gives false (0).

Worked set:
[[record]]
compound = "Cc1ccc(S(=O)(=O)N2[C@@H](c3ccccc3)C(C(=O)O)=CC[C@H]2c2ccc(F)cc2)cc1"
grouplabel = "false (0)"

[[record]]
compound = "COc1cc2c(cc1OC)CN(C(=O)[C@@H]1[C@H]3C(=O)O[C@H](c4ccccc4)[C@H](c4ccccc4)N3[C@H](c3ccc(O)cc3)[C@@]13C(=O)Nc1ccc(C#CC4=CCCCC4)cc13)CC2"
grouplabel = "false (0)"

[[record]]
compound = "C=CCOC(=O)[C@H]1[C@@H]2C(=O)O[C@@H](c3ccccc3)[C@@H](c3ccccc3)N2[C@@H](c2ccc(OCCOC(=O)[C@@H]3C[C@@H]4C(=O)N[C@@H](Cc5ccccc5)C(=O)N4[C@@H]3c3ccc(O)cc3)cc2)[C@]12C(=O)Nc1ccc(I)cc12"
grouplabel = "false (0)"

[[record]]
compound = "Cc1ccc(S[C@]2(C(=O)NCc3ccccc3)CC(=O)N(Cc3ccccc3Cl)[C@@H]2c2ccc(CO)cc2)cc1"
grouplabel = "false (0)"

[[record]]
compound = "CC(C)C[C@@H]1NC(=O)[C@@H]2C[C@H](C(=O)NCCCCCNC(=O)CS)[C@H](c3ccc(O)cc3)N2C1=O"
grouplabel = "true (1)"


Task: Please tell me: is the compound COc1ccc(C(O)C2C=CC3C(=O)N(c4ccccc4)C(=O)C3N2Nc2ccccc2F)c2ccccc12 (configuration not stated) at or over 0.3 in terms of z-score?
Result: false (0)

Task: Does the reported z-score for `COC(=O)C(CC#Cc1ccc2c(c1)[C@]1(C(=O)N2)[C@H](C(=O)NC[C@H](O)c2ccccc2)[C@H]2C(=O)O[C@H](c3ccccc3)[C@H](c3ccccc3)N2[C@@H]1c1ccc(O)cc1)C(=O)OC` fall at or above the 0.3 mark?
Result: false (0)
